assay: growth inhibition of GSK3B-pretreated HCT116 cells – cell-based, CellTiter-Glo, 0.2 to 20 µM (AID 1117336); conditions: HCT116 viability after GSK3B inhibitor, at 20 µM
Calls of active or inactive are those of the source.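 The calls were made as follows: active = compounds lowering colon cancer cell viability after pretreatment blocking the GSK3B kinase; inactive = the rest.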
The reply should name one outcome from TRUE for active, FALSE for inactive

Below are worked cases with known answers.
{"columns": ["Compound", "Cat"],
 "data": [
  ["Cc1[nH]cnc1-c1ccc(Cl)cc1", "FALSE"],
  ["C[N+](C)(CCOc1ccccc1)Cc1cccs1", "FALSE"],
  ["CCc1cc2cc(OC)c(OC)cc2c(Cc2ccccc2)n1", "FALSE"],
  ["CCc1ccc(C(=O)C(C)CN2CCCCC2)cc1 (stereo not given)", "FALSE"],
  ["NC(=S)N=Nc1ccc(NN=C(N)N)cc1", "FALSE"],
  ["O=C(OC1C[C@@H]2CC3C[C@@H](C1)N2CC3=O)c1c[nH]c2ccccc12 (stereo not given in full)", "FALSE"],
  ["CCCCCCCCCCCCCCCC(=O)OCC(COC(=O)CCCCCCCCCCCCCCC)OC(=O)CCCCCCCCCCCCCCC", "FALSE"],
  ["CCCCCN=C(N)N/N=C/c1c[nH]c2ccc(OC)cc12", "TRUE"]
]}

Task: I would be grateful if you could indicate the recorded call for C/C(=N/NC(=O)c1ccncc1)C(=O)O .
Output: FALSE

Task: Repeat with CN(C)CCCOC1(Cc2ccccc2)CCCCCC1
Output: FALSE

Task: Item: NCc1ccccc1Sc1ccccc1CO
Output: FALSE

Task: Would you kindly repeat that for CCOC(=O)C1=C(C)NC(C)=C(C(=O)OC)C1c1cccc([N+](=O)[O-])c1 (stereo not given) ?
Output: TRUE

###

What glutamate uptake change was measured for each of the following?
test: enhancers of glutamate uptake in motor neurons, MN-1 cell line (AID 1612); settings: MN-1 motor neuron cells, stronger effect = higher value;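 also: tested at 1 µM final; 0% = mean of DMSO vehicle wells on each plate; positive means more glutamate uptake than control and negative means less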
Answers are plain numbers, in %.

Completed entries (count: 2):
{"columns": ["Compound Structure", "Observed"],
 "data": [
  ["c1ccc2[nH]c(-c3cscn3)nc2c1", -14],
  ["NS(=O)(=O)c1cc2c(cc1Cl)NCNS2(=O)=O", 8.53]
]}

Required: glutamate uptake change, one value per molecule below.
1. Cc1ccc(-c2cc(C(F)(F)F)nn2-c2ccc(S(N)(=O)=O)cc2)cc1
2. CCOC(=O)N1CCC(=C2c3ccc(Cl)cc3CCc3cccnc32)CC1
3. CCCCNC(=O)NS(=O)(=O)c1ccc(C)cc1
4. c1ccc2c(CC3=NCCN3)cccc2c1

Output:
-10.9
-2.42
-18.9
-6.49

Each molecule below has a reported value. Please supply its glutamate uptake change.
1. Cc1ccc(C)c(OCCCC(C)(C)C(=O)O)c1
2. CC(=O)OCC[N+](C)(C)C

Output:
0.82
-18.6

Provide each entry's glutamate uptake change from the list below.
1. NNC(=O)c1ccncc1
2. CCCNC(=O)NS(=O)(=O)c1ccc(Cl)cc1
3. CCN(CC)CCNC(=O)c1ccc(N)cc1
4. Cn1cnc([N+](=O)[O-])c1Sc1ncnc2nc[nH]c12
5. Nc1nc(N)c2nc(-c3ccccc3)c(N)nc2n1

Output:
1: -15.1; 2: -12.9; 3: -9.57; 4: -23.5; 5: 10.7

###

Give percent of negative control (+Dex) for every item shown.
assay: modulators of glucocorticoid suppression of NF-kB, cell-based, luciferase, IL-1B stimulus, dexamethasone (AID 624486); conditions: NF-kB luciferase reporter, IL-1B + dexamethasone, luminescence; actives lie on both sides, concentration not given here;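 also: 100% = mean signal of vehicle control wells on the plate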
One number for each entry, in %.

{"columns": ["Compound", "Observed"],
 "data": [
  ["FC(F)(F)c1cccc(Nc2nccc(-c3cnn4nc(-c5ccccc5)ccc34)n2)c1", 86.5]
]}

// for each compound in input: emit percent of negative control (+Dex)
1. CN(c1ccc(NC(=O)Nc2ccc(OC(F)(F)F)cc2)cc1)c1ccnc(Nc2cccc(S(N)(=O)=O)c2)n1
2. COC(=O)c1cncc(/C=C/c2c(C)cc(O)cc2C)c1
3. CCc1c(C)nc2sc3c(N)ncnc3c2c1C
4. CC1=C(C(=O)Nc2ccc3n[nH]c(C)c3c2)C(c2ccc(C(F)(F)F)cc2)CC(=O)N1 (stereo not given)
5. CN(C)CC#Cc1cccc(C(=O)c2cnn(-c3ccc(F)cc3)c2N)c1
6. CCc1nn2ncccc2c1-c1ccnc(NC2CC2)n1
7. O=C1NC(=NCc2ccccc2Cl)SC1=Cc1ccc2ncccc2c1

Output:
81.5
108
53.5
82.5
109
102
95

Batch request: percent of negative control (+Dex) per item, same order as input.
1. NS(=O)(=O)c1ccc(N=Nc2c(O)[nH]c3ccc(-c4cnco4)cc23)cc1
2. Cn1cc(C2=C(c3cn(C)c4cc(C(N)=O)ccc34)C(=O)NC2=O)c2ccccc21
3. Cc1[nH]nc2c1N=C(c1ccccc1F)c1cc(C(N)=O)ccc1N2
4. O=S(=O)(CCOCc1ccc(-c2ccc3ncnc(Nc4ccc(OCc5cccc(F)c5)c(Cl)c4)c3c2)o1)c1ccccc1
5. CC1=C(C(=O)Nc2ccc3[nH]ncc3c2)C(c2ccc(F)cc2)N=C(c2ccc(C(F)(F)F)nc2)N1 (stereo not given)
6. O=C1NC(=O)C(=Cc2ccc3ncccc3c2)S1
7. CC(=O)Nc1cccc(C#Cc2cncnc2Nc2ccc(OCc3cccc(F)c3)c(Cl)c2)n1
8. CCn1c(-c2nonc2N)nc2cncc(C(=O)N3CCNCC3)c21

Output:
1. 104
2. 95
3. 110
4. 78
5. 86
6. 126
7. 68
8. 111

Each compound below has a recorded value; state its percent of negative control (+Dex).
1. CS(=O)(=O)CCNCc1ccc(-c2ccc3ncnc(Nc4ccc(OCc5cccc(C(F)(F)F)c5)cc4)c3c2)o1
2. COc1cccc(C2=C(c3cn(C)c4ccc(Cl)cc34)C(=O)NC2=O)c1
3. O=c1[nH]c2nc(NC3CCOCC3)ncc2cc1Oc1ccc(F)cc1F
4. COc1cccc(-n2ncc3c(N/N=C/c4ccc(C(=O)NCCN(C)C)cc4)ncnc32)c1
5. Fc1cccc(COc2ccc(Nc3ncnc4sc(-c5cccs5)cc34)cc2Cl)c1

Output:
1: 85; 2: 139; 3: 104; 4: 104; 5: 92

Give measured percent of negative control (+Dex) for every item shown.
1. Cc1nnc(-c2ccc(C)c(-c3ccc(C(=O)Nc4cccc(C#N)c4)cc3)c2)o1
2. COc1cccc(/C=N/Nc2ncnc3c2cnn3-c2cccc(OC)c2)c1

Output:
1: 100; 2: 91.5

I'm hoping you can list percent of negative control (+Dex) for every compound here, please.
1. CNc1ncc2cc(Oc3ccc(F)cc3F)c(=O)n(C)c2n1
2. C[C@@H](Oc1cc(-n2cnc3ccc(OCC4CCN(C)CC4)cc32)sc1C(N)=O)c1ccccc1C(F)(F)F

Output:
1. 94.5
2. 98.5

Would you be so kind as to report percent of negative control (+Dex) for each listed record?
1. CCc1ccc(Oc2nccc(-c3c(-c4ccc(F)cc4)ncn3C3CCNCC3)n2)cc1
2. CS(=O)(=O)Nc1ccc(-c2cc(-c3ccccc3)cc(C(N)=O)c2N)cc1
3. COc1cccc(C2=C(c3c(C)n(C)c4ccccc34)C(=O)NC2=O)c1
4. C[C@@H](Oc1cc(-n2cnc3ccc(OC4CCN(C)CC4)cc32)sc1C(N)=O)c1ccccc1Cl

Output:
1: 104; 2: 88; 3: 91; 4: 73

List percent of negative control (+Dex) for every entry below, keeping the order given.
1. Cn1cc(C2=C(c3c4n(c5ccccc35)CCCCC4)C(=O)NC2=O)c2ccccc21
2. O=C(Nc1n[nH]c2nc(-c3ccc(O)cc3)c(Br)cc12)C1CC1
3. COc1cc(/C=N/Nc2ncnc3[nH]ncc23)ccc1O
4. O=C(O[C@H]1CN[C@H](C#Cc2cc3ncnc(Nc4ccc5c(ccn5Cc5cc(F)ccc5F)c4)c3s2)C1)N1CCOCC1
5. Cn1cc(C2=C(c3ccccc3C(F)(F)F)C(=O)NC2=O)c2ccccc21

Output:
1. 100
2. 206
3. 87.5
4. 62
5. 114

Batch request: percent of negative control (+Dex) for each of the following compounds.
1. COc1ccc(F)cc1C(=O)c1cnc(NC2CCN(S(C)(=O)=O)CC2)nc1N
2. COc1cc2ncnc(Nc3ccc(C)c(O)c3)c2cc1OC
3. O=C1NC(=O)C(c2cccc([N+](=O)[O-])c2)=C1Nc1cc(Cl)c(O)c(Cl)c1
4. NC(=O)c1cccc(Nc2nccc(Nc3cccc(F)c3)n2)c1
5. COc1cccc(-c2c[nH]c3c(N/N=C/c4ccncc4)ncnc23)c1
6. CS(=O)(=O)CCNCc1ccc(-c2ccc3ncnc(Nc4ccc(OCc5cccc(F)c5)c(C(F)(F)F)c4)c3c2)o1

Output:
96.5
65.5
80.5
208
129
106

###

Assignment: determine reported glutamate uptake change for the given compounds.
test: enhancers of glutamate uptake in motor neurons, MN-1 cell line (AID 1612); settings: MN-1 motor neuron cells, stronger effect = higher value;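 also: tested at 1 µM final; 0% = mean of DMSO vehicle wells on each plate; positive means more glutamate uptake than control and negative means less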
Numbers only, in %.

{"columns": ["Compound", "Measure Unit", "Observed"],
 "data": [
  ["O=C1N=C(O)CN1/N=C/c1ccc(-c2ccc([N+](=O)[O-])cc2)o1", "%", -2.24],
  ["c1ccc2c(c1)CCCC2C1=NCCN1 (configuration not stated)", "%", 6.14],
  ["NC(=O)N1c2ccccc2C=Cc2ccccc21", "%", -6.72],
  ["O=c1n(CCCN2CCN(c3cccc(Cl)c3)CC2)nc2ccccn12", "%", 4.27],
  ["CN(C)CCCN1c2ccccc2Sc2ccc(Cl)cc21", "%", 11.9],
  ["COc1cc(NC(C)CCCN)c2ncccc2c1 (configuration not stated)", "%", -1.37],
  ["Nc1nc2ncc(CNc3ccc(C(=O)N[C@@H](CCC(=O)O)C(=O)O)cc3)nc2c(=O)[nH]1", "%", 0.74],
  ["NS(=O)(=O)c1cc2c(cc1Cl)NC=NS2(=O)=O", "%", 4.54],
  ["C[C@H](CS)C(=O)N1CCC[C@H]1C(=O)O", "%", -3.95],
  ["NC(=O)c1cnccn1", "%", 25.2]
]}

Give me glutamate uptake change for each of these compounds, listed below.
1. OC(CCN1CCCCC1)(c1ccccc1)C1CCCCC1 (configuration not stated)
2. CN(C)CCOC(c1ccc(Cl)cc1)c1ccccn1 (configuration not stated)

Output:
1: -20.9; 2: 21.1

Source listed as PubChem BioAssay.
